Reference source: ChEMBL document CHEMBL2034881

- subject-of-test: Protein kinase C theta type (Homo sapiens)
- Sequence (Q04759 whole entry): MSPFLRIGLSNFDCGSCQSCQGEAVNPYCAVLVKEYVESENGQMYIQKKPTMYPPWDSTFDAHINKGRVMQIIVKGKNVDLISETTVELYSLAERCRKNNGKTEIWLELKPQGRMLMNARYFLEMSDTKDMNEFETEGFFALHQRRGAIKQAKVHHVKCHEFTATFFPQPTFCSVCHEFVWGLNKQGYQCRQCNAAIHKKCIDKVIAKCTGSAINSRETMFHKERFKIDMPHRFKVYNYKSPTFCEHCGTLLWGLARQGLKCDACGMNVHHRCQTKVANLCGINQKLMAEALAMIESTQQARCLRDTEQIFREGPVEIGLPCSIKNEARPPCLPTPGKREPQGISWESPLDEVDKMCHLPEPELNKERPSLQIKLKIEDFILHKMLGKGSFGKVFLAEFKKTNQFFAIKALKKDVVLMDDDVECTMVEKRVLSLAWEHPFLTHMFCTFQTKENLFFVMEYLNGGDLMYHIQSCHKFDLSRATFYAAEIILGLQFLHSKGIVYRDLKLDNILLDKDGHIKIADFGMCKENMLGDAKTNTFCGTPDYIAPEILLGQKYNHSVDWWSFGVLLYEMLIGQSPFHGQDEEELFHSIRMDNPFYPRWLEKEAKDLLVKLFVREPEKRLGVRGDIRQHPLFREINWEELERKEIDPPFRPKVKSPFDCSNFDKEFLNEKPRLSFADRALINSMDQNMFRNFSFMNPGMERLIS
measurement-type: IC50

Request: Recall the recorded IC50 for COc1cc(O)c(CC=C(C)C)c(O)c1C(=O)/C=C/c1ccc(O)cc1 [XANTHOHUMOL] with Protein kinase C theta type (Homo sapiens) and state it.
Response: > 100 µM
